// provenance: paper PMC5844530

Assay: Pharmacokinetics in whole blood, cynomolgus monkeys
Settings: cynomolgus monkey, whole blood, po, 300 mg/kg, Concentration of compound 3 in whole blood, cynomolgus monkeys, single oral 300 mg/kg fosmetpantotenate, 8 hr, LLOQ 2.13 nM
parameterMeasured: concentration at 8 h (nM)

compound: CC1(C)COP(=O)(O)O[C@H]1C(=O)NCCC(=O)O [Compound 3]
measuredResult: 619

###

Test: Pharmacokinetics in whole blood, Sprague-Dawley rats
Settings: male, Sprague-Dawley, rat, in vivo, 300 mg/kg, Fosmetpantotenate Mean Conc., male Sprague-Dawley rats, fosmetpantotenate 300 mg/kg oral, blood, 0.167 hr, mean, BQL <1.26 nM

compound: COC(=O)CCNC(=O)[C@H](O)C(C)(C)COP(=O)(N[C@@H](C)C(=O)OC)Oc1ccccc1 (mixture of isomers) [Fosmetpantotenate]
concentration at 0.167 h, nM: 18.1

###

Test: Microdialysis (striatal dialysate and blood) in cynomolgus monkeys
Format: in vivo, cynomolgus monkey
Conditions: cynomolgus, cynomolgus monkey, in vivo, po, 100 mg/kg

molecule: CC(C)(CO)[C@@H](O)C(=O)NCCC(=O)O [PA, pantothenate]
unitAbbreviation: nM
Cmax: 255

###

Assay: Pharmacokinetics in whole blood, CD-1 mice
Conditions: male, CD-1, mouse, whole blood, po, 100 mg/kg, Whole Blood Conc. of compound 2, CD-1 mice, single 100 mg/kg RE-024-02 PO, 0.083 hr, LLOQ 3 ng/mL
parameterMeasured: concentration at 0.083 h (ng/mL)

structureNotation: COC(=O)CCNC(=O)[C@@H]1OP(=O)(O)OCC1(C)C
parameterMeasured: concentration at 0.083 h
unitAbbreviation: ng/mL
measuredResult: 17.4

###

Assay: Pharmacokinetics in whole blood, Sprague-Dawley rats
Details: Sprague-Dawley, rat, in vivo, po, 300 mg/kg, Whole Blood Conc. of compound 1, Sprague-Dawley rats, single 300 mg/kg RE-024-02 PO, time 0.33, LLOQ 0.60 ng/mL

molecule: COC(=O)CCNC(=O)[C@@H]1OP(=O)(N[C@@H](C)C(=O)OC)OCC1(C)C (stereo partly shown) [Compound 1]
concentration at 0.33 h: 22.6 ng/mL

###

Experiment: in vivo
Conditions: male, C57Bl6, mouse, po, 700 mg/kg, PA Concentration in Mouse Striatal Dialysate (Corrected for Dilution), Mean

molecule: CC(C)(CO)[C@@H](O)C(=O)NCCC(=O)O [PA, pantothenate]
concentration at 3.5 h / nM: 115

###

Test: Pharmacokinetics in whole blood, cynomolgus monkeys
Conditions: cynomolgus monkey, in vivo, po, 300 mg/kg, Concentration of compound 4 in whole blood, cynomolgus monkeys, single oral 300 mg/kg fosmetpantotenate, 4 hr, sum of diastereomers, LLOQ 1.30 nM
parameterMeasured: concentration at 4 h (nM)

compound: COC(=O)[C@H](C)NP(=O)(OCC(C)(C)[C@@H](O)C(=O)NCCC(=O)O)Oc1ccccc1 (stereo partly shown) [Compound 4]
parameterMeasured: concentration at 4 h
measuredResult: 665

###

Experiment: Pharmacokinetics in whole blood, Sprague-Dawley rats
Settings: male, Sprague-Dawley, rat, in vivo, 100 mg/kg, Fosmetpantotenate Conc., male Sprague-Dawley rats, fosmetpantotenate 100 mg/kg oral, blood, 0.5 hr, individual animals, BQL <1.26 nM
parameterMeasured: concentration at 0.5 h (nM)

molecule: COC(=O)CCNC(=O)[C@H](O)C(C)(C)COP(=O)(N[C@@H](C)C(=O)OC)Oc1ccccc1 (mixture of isomers) [Fosmetpantotenate]
parameterMeasured: concentration at 0.5 h
unitAbbreviation: nM
measuredResult: 3.31

###

Experiment: Pharmacokinetics in whole blood, Sprague-Dawley rats
Conditions: Sprague-Dawley, rat, whole blood, po, 300 mg/kg, Whole Blood Conc. of compound 2, Sprague-Dawley rats, single 300 mg/kg RE-024-02 PO, time 8, LLOQ 10.2 nM

structureNotation: COC(=O)CCNC(=O)[C@@H]1OP(=O)(O)OCC1(C)C
concentration at 8 h (nM): 31.7

###

Test: Pharmacokinetics in whole blood, Sprague-Dawley rats
Details: male, Sprague-Dawley, rat, in vivo, 300 mg/kg, Fosmetpantotenate Mean Conc., male Sprague-Dawley rats, fosmetpantotenate 300 mg/kg oral, blood, 2 hr, mean, BQL <1.26 nM

compound: COC(=O)CCNC(=O)[C@H](O)C(C)(C)COP(=O)(N[C@@H](C)C(=O)OC)Oc1ccccc1 (mixture of isomers) [Fosmetpantotenate]
concentration at 2 h: 3.41 nM

###

Experiment: Pharmacokinetics in whole blood, Sprague-Dawley rats
Conditions: male, Sprague-Dawley, rat, in vivo, 700 mg/kg, Fosmetpantotenate Mean Conc., male Sprague-Dawley rats, fosmetpantotenate 700 mg/kg oral, blood, 0.167 hr, mean, BQL <1.26 nM

molecule: COC(=O)CCNC(=O)[C@H](O)C(C)(C)COP(=O)(N[C@@H](C)C(=O)OC)Oc1ccccc1 (mixture of isomers) [Fosmetpantotenate]
unitAbbreviation: nM
concentration at 0.167 hr: 138

###

Experiment: in vitro
Details: pH 7.4, In Vitro Measured Papp

molecule: Cn1c(=O)c2c(ncn2C)n(C)c1=O
Papp at 1 h: 34.3 ×10⁻⁶ cm/s
--
molecule: OC[C@@H](O)[C@@H](O)[C@H](O)[C@H](O)CO [Mannitol, reference compound]
Papp at 1 h: 2.2 ×10⁻⁶ cm/s
--
molecule: N[C@@H](Cc1ccc(O)c(O)c1)C(=O)O [L-DOPA, S-3,4-dihydroxyphenylalanine, reference compound]
Papp at 1 h: 5.8 ×10⁻⁶ cm/s
--
molecule: CC(C)(CO)[C@@H](O)C(=O)NCCC(=O)O [PA, pantothenate]
Papp at 1 h: 4.2 ×10⁻⁶ cm/s

###

Assay: Pharmacokinetics in whole blood, CD-1 mice
Details: male, CD-1, mouse, whole blood, po, 300 mg/kg, Whole Blood Conc. of compound 2, CD-1 mice, single 300 mg/kg RE-024-02 PO, 0.5 hr, LLOQ 10.2 nM

molecule: COC(=O)CCNC(=O)[C@@H]1OP(=O)(O)OCC1(C)C [Compound 2]
concentration at 0.5 h / nM: 860

###

Assay: Pharmacokinetics in whole blood, cynomolgus monkeys
Settings: male, cynomolgus monkey, in vivo, 300 mg/kg, Fosmetpantotenate blood concentration, Cyno #1, male cynomolgus monkeys, fosmetpantotenate 300 mg/kg oral, blood, 4 hr
parameterMeasured: concentration at 4 h (nM)

compound: COC(=O)CCNC(=O)[C@H](O)C(C)(C)COP(=O)(N[C@@H](C)C(=O)OC)Oc1ccccc1 (mixture of isomers) [Fosmetpantotenate]
unitAbbreviation: nM
measuredResult: 231

###

Assay: Pharmacokinetics in whole blood, Sprague-Dawley rats
Conditions: Sprague-Dawley, rat, in vivo, po, 100 mg/kg, Whole Blood Conc. of compound 1, Sprague-Dawley rats, single 100 mg/kg RE-024-02 PO, time 0.33, LLOQ 0.60 ng/mL
parameterMeasured: concentration at 0.33 h (ng/mL)

compound: COC(=O)CCNC(=O)[C@@H]1OP(=O)(N[C@@H](C)C(=O)OC)OCC1(C)C (stereo partly shown) [Compound 1]
measuredResult: 1.21

###

Assay: Pharmacokinetics in whole blood, CD-1 mice
Conditions: male, CD-1, mouse, in vivo, 100 mg/kg, Conc., blood; fosmetpantotenate 100 mg/kg PO; 0.333 hr; individual animals

molecule: COC(=O)CCNC(=O)[C@H](O)C(C)(C)COP(=O)(N[C@@H](C)C(=O)OC)Oc1ccccc1 (mixture of isomers) [Fosmetpantotenate]
unitAbbreviation: nM
concentration at 0.333 h: 1.31

###

Test: Pharmacokinetics in whole blood, cynomolgus monkeys
Conditions: cynomolgus monkey, in vivo, po, 300 mg/kg, Concentration of compound 4 in whole blood, cynomolgus monkeys, single oral 300 mg/kg fosmetpantotenate, 2 hr, sum of diastereomers, LLOQ 1.30 nM
parameterMeasured: concentration at 2 h (µM)

compound: COC(=O)[C@H](C)NP(=O)(OCC(C)(C)[C@@H](O)C(=O)NCCC(=O)O)Oc1ccccc1 (stereo partly shown)
measuredResult: 5.07

###

Experiment: Pharmacokinetics in whole blood, cynomolgus monkeys
Details: cynomolgus monkey, in vivo, po, 300 mg/kg, Concentration of compound 1 in whole blood, cynomolgus monkeys, single oral 300 mg/kg fosmetpantotenate, 8 hr, sum of diastereomers, LLOQ 1.58 nM
parameterMeasured: concentration at 8 h

compound: COC(=O)CCNC(=O)[C@@H]1OP(=O)(N[C@@H](C)C(=O)OC)OCC1(C)C (stereo partly shown)
measuredResult: 7.89 nM

###

Assay: Pharmacokinetics in whole blood, CD-1 mice
Details: male, CD-1, mouse, in vivo, 100 mg/kg, Conc., blood; fosmetpantotenate 100 mg/kg PO; 0.167 hr; individual animals

compound: COC(=O)CCNC(=O)[C@H](O)C(C)(C)COP(=O)(N[C@@H](C)C(=O)OC)Oc1ccccc1 (mixture of isomers) [Fosmetpantotenate]
concentration at 0.167 h [nM]: 1.31

###

Assay: Pharmacokinetics in whole blood, CD-1 mice
Details: male, CD-1, mouse, in vivo, 700 mg/kg, Fosmetpantotenate Conc., male CD-1 mice, fosmetpantotenate 700 mg/kg oral, blood, 4 hr, individual animals, BQL <1.02 nM
parameterMeasured: concentration at 4 h (nM)

compound: COC(=O)CCNC(=O)[C@H](O)C(C)(C)COP(=O)(N[C@@H](C)C(=O)OC)Oc1ccccc1 (mixture of isomers) [Fosmetpantotenate]
measuredResult: 1.14
